# System: Ba-L K101E + K103N + V108VI + V179M + Y181C + E138Q
# Assay procedure: Antiviral activity, NNRTI-resistant virus K101E+K103N+V108VI+V179M+Y181C+E138Q
# Format: cell-based, HIV-1
# Measurement setup: Ba-L, * = K101E + K103N + V108VI + V179M + Y181C + E138Q
# Method: The target compounds are evaluated for their anti-HIV-1 activity and cytotoxicity. In a primary screen, the anti-HIV activity against the laboratory strain Ba-L and against a primary subtype C isolate was determined in the TZM-bl cell line. Cellular toxicity on TZM-bl cells was evaluated using WST-1. […]
The class of a record is decided solely by its measured FC (*); consult small value = under 40, mid value = from 40 up to 80, large value = 80 and over

Look over these answered cases.
- Compound: "Cc1cc(C=CC#N)cc(C)c1Nc1nc(Nc2ccc(C#N)cc2)nc(N2CCOCC2)n1 [T8]"
  Category: "large value"
- Compound: "Cc1cc(C=CC#N)cc(C)c1Oc1nc(N)nc(Nc2ccc(C#N)cc2)n1 [T11]"
  Category: "mid value"
- Compound: "CNc1nc(Nc2ccc(C#N)cc2)nc(Oc2c(C)cc(C=CC#N)cc2C)n1 [T12]"
  Category: "mid value"
- Compound: "N#CC=Cc1cc(F)c(Nc2nc(N)nc(Nc3ccc(C#N)cc3)n2)c(F)c1 [T10]"
  Category: "large value"

Consider now this further compound.
Q: Exercise: read the entry Cc1cc(C#N)cc(C)c1Oc1nc(Nc2ccc(C#N)cc2)nc(N)c1Br [TMC125, Etravirine, reference compound] and state which class it falls under.
A: mid value

---

# Tested on: VI829 L100I+K103N
# Assay procedure: Antiviral activity, NNRTI-resistant virus L100I+K103N
# Type: cell-based, HIV-1
# Measurement setup: Human immunodeficiency virus 1, read-out: Antiviral activity-NNRTI-resistant viruses EC50 VI829 L100I+K103N
Measure name: pEC50
Scale: negative log10 of molar concentration, which is what pEC50 denotes.

Recorded results for 4 molecules are shown here.
- Molecule: "Cc1cc(/C=C/C#N)cc(C)c1Nc1nc(N)nc(Nc2ccc(C#N)cc2)n1 [T2]"
  Tested target: "VI829 L100I+K103N"
  pEC50: 8.17
- Molecule: "Cc1cc(/C=C\\C#N)cc(C)c1Nc1nc(N)nc(Nc2ccc(C#N)cc2)n1 [T3]"
  Tested target: "VI829 L100I+K103N"
  pEC50: 6.91
- Molecule: "Cc1cc(/C=C/C#N)cc(C)c1Nc1ccnc(Nc2ccc(C#N)cc2)n1 [TMC278, Rilpivirine, reference compound]"
  Tested target: "VI829 L100I+K103N"
  pEC50: 8.44
- Molecule: "Cc1cc(C)c(Nc2ccnc(Nc3ccc(C#N)cc3)n2)c(C)c1 [TMC120, reference compound]"
  Tested target: "VI829 L100I+K103N"
  pEC50: 6.17

Q: Supply recorded pEC50 for Cc1cc(C=CC#N)cc(C)c1Oc1nc(N)nc(Nc2ccc(C#N)cc2)n1 [T11] here.
A: 7.77

Q: Supply recorded pEC50 for CNc1nc(Nc2ccc(C#N)cc2)nc(Oc2c(C)cc(C=CC#N)cc2C)n1 [T12] here.
A: 7.62

Q: Supply recorded pEC50 for Cc1cc(C=CC#N)cc(C)c1Nc1nc(Nc2ccc(C#N)cc2)nc(N(C)C)n1 [T5] here.
A: 7.13

Q: Supply recorded pEC50 for Cc1cc(C=CC#N)cc(C)c1Nc1nc(Nc2ccc(C#N)cc2)nc(NC(C)C)n1 [T6] here.
A: 6.74

Q: Supply recorded pEC50 for Cc1cc(C=CC#N)cc(C)c1Nc1nc(N)nc(Nc2ccc(C#N)cc2)n1 [T1] here.
A: 7.82

Q: Supply recorded pEC50 for Cc1cc(C#N)cc(C)c1Oc1nc(Nc2ccc(C#N)cc2)nc(N)c1Br [TMC125, Etravirine, reference compound] here.
A: 7.85

Origin of values: patent US9650348B2
